Assay target: Rac GTPase-activating protein 1 (Homo sapiens)
Sequence (Q9H0H5 whole entry): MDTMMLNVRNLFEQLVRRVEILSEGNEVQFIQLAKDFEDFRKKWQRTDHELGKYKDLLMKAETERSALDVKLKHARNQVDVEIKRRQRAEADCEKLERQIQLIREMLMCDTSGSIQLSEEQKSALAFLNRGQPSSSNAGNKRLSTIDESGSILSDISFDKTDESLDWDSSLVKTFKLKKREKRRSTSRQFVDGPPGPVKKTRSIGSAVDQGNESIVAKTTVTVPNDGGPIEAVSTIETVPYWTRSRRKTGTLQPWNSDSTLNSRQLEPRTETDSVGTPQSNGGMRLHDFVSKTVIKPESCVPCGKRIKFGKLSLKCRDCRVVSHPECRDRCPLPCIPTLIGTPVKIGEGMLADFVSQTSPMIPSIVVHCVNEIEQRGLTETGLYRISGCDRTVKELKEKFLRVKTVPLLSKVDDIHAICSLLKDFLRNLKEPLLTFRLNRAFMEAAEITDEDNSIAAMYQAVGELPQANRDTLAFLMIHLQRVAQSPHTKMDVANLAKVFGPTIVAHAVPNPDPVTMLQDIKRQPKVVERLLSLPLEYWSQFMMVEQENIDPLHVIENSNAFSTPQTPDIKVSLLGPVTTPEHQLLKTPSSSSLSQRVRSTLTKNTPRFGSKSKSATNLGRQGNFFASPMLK
Assay comment: blockers of MgcRacGAP-driven Rac1 GTP hydrolysis – biochemical, ADP Hunter fluorescence, primary and confirmatory, confirmation (AID 624330)
Type: functional
Calls of active or inactive are those of the source. The rule behind the calls is not given here.
Measured property: IC50

COC(=O)c1ccc2c(c1)C(C)(C)C(/C=C/c1ccc(OC)c(OC)c1OC)=[N+]2C ... 25.7 µM (active)
O=C(CNCC1CCCO1)Nc1ccc(N2CCCCCC2)cc1 (stereo not given) ... 62.7 µM (active)
CC1CCCC(/C=N/c2ccc(O)cc2)=C1O (stereo not given) ... 26.9 µM (active)

Q: Which value of IC50 has been reported for "O=C(CCN1CCCCCC1)Nc1ccc2c(c1)OCCO2" in the records?
Result: 338 µM (active)

Q: Then "Oc1ccc(/C=N/Nc2[nH]cnc3ncnc2-3)cc1" ?
Result: 11.6 µM (active)

Q: Then "N=C1C=CC(=C(c2ccc(N)cc2)c2ccc(N)cc2)C=C1" ?
Result: 98 µM (active)

Q: Then "COc1ccccc1/C=C1/C(=O)N(c2ccccc2)N=C1C" ?
Result: 119 µM (active)

Q: Then "CN(C)CCNc1ccc(CO)c2sc3ccc(O)cc3c(=O)c12" ?
Result: 20.2 µM (active)

Q: Then O=C(CNC(=O)C1COc2ccccc2O1)N/N=C/c1ccc(O)cc1O (stereo not given) ?
Result: 71.7 µM (active)

Q: Then "Nc1cc(C(F)(F)F)ccc1N1CCOCC1" ?
Result: 29.9 µM (active)

Q: Then "COc1ccc(CNC(=O)CN(C)Cc2ccc(C(C)(C)C)cc2)cc1" ?
Result: 106 µM (active)

Q: Then "Cc1ccnc(Nc2nc(-c3ccc(O)c(O)c3)cs2)c1" ?
Result: 41.3 µM (active)

Q: Then "CSc1ccc(/C=N/Nc2cccc(C(=O)O)c2)cc1" ?
Result: 83.5 µM (active)
